Biological target: hSERT (Homo sapiens, UniProt P31645)
Construct: expressed in transfected cells; host or cells: HEK-293 derived cell line, stably transfected; membrane preparation
Sequence (P31645 whole entry): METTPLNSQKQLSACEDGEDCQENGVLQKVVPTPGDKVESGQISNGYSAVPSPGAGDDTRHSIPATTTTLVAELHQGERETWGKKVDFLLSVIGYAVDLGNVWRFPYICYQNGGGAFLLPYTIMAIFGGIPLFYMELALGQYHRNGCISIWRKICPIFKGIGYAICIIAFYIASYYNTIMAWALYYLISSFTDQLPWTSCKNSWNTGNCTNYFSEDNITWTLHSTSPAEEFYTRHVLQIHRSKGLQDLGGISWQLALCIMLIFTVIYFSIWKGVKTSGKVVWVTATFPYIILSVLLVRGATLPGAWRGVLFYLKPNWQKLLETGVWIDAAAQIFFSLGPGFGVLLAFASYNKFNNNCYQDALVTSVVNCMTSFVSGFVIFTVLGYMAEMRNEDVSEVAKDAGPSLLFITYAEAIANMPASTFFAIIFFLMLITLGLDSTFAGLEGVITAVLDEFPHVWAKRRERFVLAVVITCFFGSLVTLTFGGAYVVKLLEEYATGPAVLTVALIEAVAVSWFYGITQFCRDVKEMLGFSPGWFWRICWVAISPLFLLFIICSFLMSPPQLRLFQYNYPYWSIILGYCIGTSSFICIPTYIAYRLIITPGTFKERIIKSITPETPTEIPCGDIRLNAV
Assay: hSERT binding assay (Assay 1)
Details: ratio of SERT Ki to NET Ki (binding)
Each record here notes measured SERT Ki/NET Ki.
measured property: SERT Ki/NET Ki

1. Cc1ccc(Cl)c(OC(c2ccccc2)C2CCNC2)c1Cl (centres unmarked) [40-34]
0.1
2. COc1ccc(F)c(Cl)c1O[C@@H](c1ccccc1)[C@H]1CCNC1
13
3. N#Cc1cccc([C@H](Oc2c(F)ccc(F)c2Cl)[C@@H]2CCNC2)c1
0.8
4. Cc1ccc(Cl)c(OC(c2ccccc2)C2CCNC2)c1Cl (centres unmarked) [40-31]
0.6
5. Fc1ccc(Cl)c(Cl)c1OC(c1ccccc1)C1CCNC1 (centres unmarked) [40-12]
1.3

###

Target: hSERT (Homo sapiens)
Construct: expressed in transfected cells; host or cells: HEK-293 derived cell line, stably transfected; membrane preparation
Experiment: hSERT binding assay (Assay 1)
Conditions: ratio of binding Ki at hSERT to Ki at hNET, rounded off to the nearest tenth
measured property: SERT Ki/NET Ki

1. Cc1ccc(OC(c2ccccc2)C2CCNC2)cc1 (stereo not shown) [Compound 23-6]
0.2
2. CC(C)c1ccccc1OC(c1cccc(Cl)c1)C1CCNC1 (stereo not shown) [Compound 20-12]
7.9
3. COc1ccccc1OC(c1cccc(F)c1)C1CCNC1 (stereo not shown) [Compound 20-15]
4
4. Fc1c(Oc2ccccc2)cccc1OC(c1ccccc1)C1CCNC1 (stereo not shown) [Compound 25-8]
1.3
5. Cc1c(F)cccc1O[C@@H](c1ccccc1)[C@H]1CCNC1 [Compound 25-19]
4
6. Fc1cccc(OC(c2ccccc2)C2CCNC2)c1 (stereo not shown) [Compound 21-1]
1
7. COc1ccccc1OC(c1ccccc1OC(F)(F)F)C1CCNC1 (stereo not shown) [Compound 20-23]
1.6
8. COc1ccccc1O[C@@H](c1cc(F)cc(F)c1)[C@@H]1CCNC1 (racemic) [Compound 20-31]
6.3
9. Clc1cccc(C(Oc2ccccc2Cl)C2CCNC2)c1 (stereo not shown) [Compound 20-5]
1.6
10. COc1ccccc1OC(c1cc(F)cc(Cl)c1)C1CCNC1 (stereo not shown) [Compound 20-35]
16
11. COc1ccccc1O[C@H](c1cc(F)cc(F)c1)[C@@H]1CCNC1 [Compound 20-34]
1
12. Fc1cccc(C(Oc2ccccc2Cl)C2CCNC2)c1 (stereo not shown) [Compound 20-4]
0.63
13. Brc1ccccc1OC(c1ccccc1)C1CCNC1 (stereo not shown) [Compound 19-7]
1
14. Fc1cccc(OC(c2ccccc2)C2CCNC2)c1F (stereo not shown) [Compound 25-1]
32
15. Clc1ccc(Oc2cccc(OC(c3ccccc3)C3CCNC3)c2)cc1 (stereo not shown) [Compound 21-16]
0.3
16. COc1ccccc1OC(c1ccccc1Cl)C1CCNC1 (stereo not shown) [Compound 20-17]
13
17. CC(=O)c1ccccc1O[C@H](c1ccccc1)[C@@H]1CCNC1 (stereo in doubt) [Ex. 9-3]
50
18. c1ccc(Cc2ccccc2OC(c2ccccc2)C2CCNC2)cc1 (stereo not shown) [Compound 19-20]
1.6
19. Cc1c(Cl)cccc1OC(c1ccccc1)C1CCNC1 (stereo not shown) [Compound 25-20]
0.2
20. c1ccc(-c2ccccc2OC(c2ccccc2)C2CCNC2)cc1 (stereo not shown) [Compound 19-19]
32
21. Cc1cccc(OC(c2ccccc2)C2CCNC2)c1 (stereo not shown) [Compound 21-7]
0.5
22. Fc1cccc(O[C@@H](c2ccccc2)[C@H]2CCNC2)c1Cl [Ex. 9-4]
6.3
